# Procedure Details: Cytotoxicity against human 1BR3 cells assessed as cell viability at 1 uM after 24 hrs by MTT assay
# Type: cell-based
# Cond: read-out: Activity
Assay Readout: viability at 24 h, 1 µM (%)
Answer with a number only, understood to be in %.

Asked: Request the reported viability at 24 h, 1 µM associated with "COc1c2occc2c(-c2ccc(/C=C/C(=O)OC(C)(C)C)cc2)c2ccc(=O)oc12"
Given back: 98.8

Asked: Ok, now "COc1c2occc2cc2ccc(=O)oc12"
Given back: 101

Asked: Entry "COc1c2ccoc2c(-c2ccc(/C=C/C(=O)O)cc2)c2oc(=O)ccc12" please
Given back: 65.6

Asked: Another molecule: "COc1c2ccoc2cc2oc(=O)ccc12"
Given back: 105

Asked: Another molecule to check: "Cc1oc2c(C)c3oc(=O)cc(C)c3cc2c1/C=C/C(=O)OC(C)(C)C"
Given back: 67.9
